target: AsPC-1 HiBiT-KRASG12D (Homo sapiens, UniProt P01116, G12D); construct: insert the HiBiT tag onto the N-terminus of one or more of the endogenous KRAS alleles; endogenous in cells; host or cells: AsPC-1 (ATCC CRL-1682), CRISPR-Cas9 knock-in clone, one tagged allele; assay: HiBiT degradation assay (G12D), AsPC-1 HiBiT-KRASG12D cells; type: cell-based; conditions: AsPC-1 HiBiT-KRASG12D cells, 24 hours treatment, HiBiT luminescence
Sequence (P01116 1-188 isoform P01116-2 G12D): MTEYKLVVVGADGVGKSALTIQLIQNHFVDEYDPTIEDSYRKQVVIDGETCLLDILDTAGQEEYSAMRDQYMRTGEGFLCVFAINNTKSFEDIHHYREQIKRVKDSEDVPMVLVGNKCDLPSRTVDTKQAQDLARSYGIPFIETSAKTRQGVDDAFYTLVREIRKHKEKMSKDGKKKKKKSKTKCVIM
measured_property: DC50

Below: 3 compounds and their reported DC50.
compound	measured_on	DC50
C#Cc1c(F)ccc2cc(O)cc(-c3ncc4c(N5CC6CCC(C5)N6)nc(OCCN5CCC(CN6CCN(c7cnc(C(=O)N[C@H](C(=O)N8C[C@H](O)C[C@H]8C(=O)N[C@@H](C)c8ccc(-c9scnc9C)cc8)C(C)(C)C)cn7)CC6)CC5)nc4c3F)c12 [Compound 179]	AsPC-1 HiBiT-KRASG12D (Homo sapiens, UniProt P01116, G12D)	< 600 nM
CCc1cccc2cc(O)cc(-c3ncc4c(N5CC6CCC(C5)N6)nc(N5CC(CN6CCC(CC7CN(c8cc([C@H](C(=O)N9C[C@H](O)C[C@H]9C(=O)N[C@@H](C)c9ccc(-c%10scnc%10C)cc9)C(C)C)on8)C7)CC6)C5)nc4c3F)c12 [Compound 182]	AsPC-1 HiBiT-KRASG12D (Homo sapiens, UniProt P01116, G12D)	< 600 nM
CCc1cccc2cc(O)cc(-c3ncc4c(N5CC6CCC(C5)N6)nc(OCCN5CCC(N(C)c6cc([C@H](C(=O)N7C[C@H](O)C[C@H]7C(=O)N[C@@H](C)c7ccc(-c8scnc8C)cc7)C(C)C)on6)CC5)nc4c3F)c12 (relative stereo) [Compound 135]	AsPC-1 HiBiT-KRASG12D (Homo sapiens, UniProt P01116, G12D)	< 600 nM

Let us move to another entry and its DC50.
What DC50 value was documented for this compound, CCc1cccc2cc(O)cc(-c3ncc4c(N5CC6CCC(C5)N6)nc(OCCN5CCC(F)(CN6CCN(c7cnc(C(=O)N[C@H](C(=O)N8C[C@H](O)C[C@H]8C(=O)N[C@@H](C)c8ccc(-c9scnc9C)cc8)C(C)(C)C)cn7)CC6)CC5)nc4c3F)c12 [Compound 155] ?
< 600 nM

###

target: AsPC-1 HiBiT-KRASG12D (Homo sapiens, UniProt P01116, G12D); construct: insert the HiBiT tag onto the N-terminus of one or more of the endogenous KRAS alleles; endogenous in cells; host or cells: AsPC-1 (ATCC CRL-1682), CRISPR-Cas9 knock-in clone, one tagged allele; test: HiBiT degradation assay (G12D), AsPC-1 HiBiT-KRASG12D cells; assay type: cell-based; details: AsPC-1 HiBiT-KRASG12D cells, 24 hours treatment, HiBiT luminescence
Parameter: DC50. Scope: all listed entries.

What DC50 value was documented for this compound, Cc1ncsc1-c1ccc([C@H](C)NC(=O)[C@@H]2C[C@@H](O)CN2C(=O)[C@@H](NC(=O)COCC2CCN(CCOc3nc(N4CC5CCC(C4)N5)c4cnc(-c5cc(O)cc6ccccc56)c(F)c4n3)CC2)C(C)(C)C)cc1 [Compound 23] ?
1000 to 3000 nM

What DC50 value was documented for this compound, CCc1cccc2cc(O)cc(-c3ncc4c(N5CC6CCC(C5)N6)nc(OCCN5CCC[C@@H](CN6CCN(c7cc([C@H](C(=O)N8C[C@H](O)C[C@H]8C(=O)N[C@@H](C)c8ccc(-c9scnc9C)cc8)C(C)C)on7)CC6)C5)nc4c3F)c12 [Compound 228] ?
< 600 nM

What DC50 value was documented for this compound, C#Cc1c(F)ccc2cc(O)cc(-c3ncc4c(N5CC6CCC(C5)N6)nc(OC[C@]56CCCN5[C@H](COc5cc([C@H](C(=O)N7C[C@H](O)C[C@H]7C(=O)N[C@@H](C)c7ccc(-c8scnc8C)cc7)C(C)C)on5)CC6)nc4c3F)c12 [Compound 311] ?
< 600 nM

What DC50 value was documented for this compound, C#Cc1c(F)ccc2cc(O)cc(-c3ncc4c(N5CC6CCC(C5)N6)nc(OCCN5CCC(OC6CN(c7cc([C@@H](C(=O)N8C[C@H](O)C[C@H]8C(=O)N[C@@H](C)c8ccc(-c9scnc9C)cc8)C(C)C)on7)C6)CC5)nc4c3F)c12 [Compound 158] ?
< 600 nM
